Test system: 922993-354-T-J3-PDC complex spheroid viability;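 note: spheroids exposed to the agents for one week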
Assay: Anticancer human tumor 922993-354-T-J3-PDC patient-derived endometrial carcinoma cell line growth inhibition [POLQ]
Conditions: curve of first compound; second compound 0.316 µM
pIC50: −log10 of the molar value.
Overview of recorded pIC50 for various compounds

COMPOUND	pIC50
COc1cccc(OCCCN)c1-c1cc(Nc2cnc(C#N)cn2)n[nH]1 + Nc1ccc(C#CCN(C(=O)Cc2ncc(C(F)(F)F)cc2C(F)(F)F)c2ccc(F)cc2)nn1	6.21
CCc1c2c(nc3ccc(O)cc13)-c1cc3c(c(=O)n1C2)COC(=O)[C@]3(O)CC + Cc1cccc(N(C)C(=O)C2C(O)CCN2c2nc(C)cc(C(F)(F)F)c2C#N)c1	7.85
COc1cc(C2c3cc4c(cc3C(OC3OC5COC(C)OC5C(O)C3O)C3COC(=O)C23)OCO4)cc(OC)c1O (stereo unspecified) + Cc1cccc(N(C)C(=O)C2C(O)CCN2c2nc(C)cc(C(F)(F)F)c2C#N)c1	5.08

Reference source: PubChem BioAssay AID1963830
